System: Amine oxidase [flavin-containing] B (Rattus norvegicus, UniProt P19643) | Read-out: log10 IC50 | Origin: multiple publications
Scale type: logarithmic (base 10). Underlying IC50 unit: µM.

A selection of reference data follows.
O=C(CCc1ccccc1)Nc1nc2ccccc2c(=O)s1 ... -1.37
Cc1ccc(NC(=S)N2N=C(c3ccccc3O)CC2c2ccc(O)cc2)cc1 (configuration not stated) ... 1.66
Oc1ccc(C2CC(c3ccccc3O)=NN2C(=S)Nc2ccccc2)cc1 (configuration not stated) ... 2.60
COc1ccc(C(/C=C/c2cccs2)=N\Nc2nc3ccccc3c(=O)n2C)cc1 ... 2.48
COc1ccccc1NC(=S)N1N=C(c2ccc(O)cc2O)CC1c1ccc(O)cc1 (configuration not stated) ... 2.23

Next:
The measured log10 IC50 that O=C1c2cc(O)ccc2-c2nnc(-c3cccc(C(F)(F)F)c3)cc21 showed for Amine oxidase [flavin-containing] B (Rattus norvegicus, UniProt P19643) is 0.71

---

# Measured on: Amine oxidase [flavin-containing] B (Rattus norvegicus)
# Sequence (P19643 whole entry): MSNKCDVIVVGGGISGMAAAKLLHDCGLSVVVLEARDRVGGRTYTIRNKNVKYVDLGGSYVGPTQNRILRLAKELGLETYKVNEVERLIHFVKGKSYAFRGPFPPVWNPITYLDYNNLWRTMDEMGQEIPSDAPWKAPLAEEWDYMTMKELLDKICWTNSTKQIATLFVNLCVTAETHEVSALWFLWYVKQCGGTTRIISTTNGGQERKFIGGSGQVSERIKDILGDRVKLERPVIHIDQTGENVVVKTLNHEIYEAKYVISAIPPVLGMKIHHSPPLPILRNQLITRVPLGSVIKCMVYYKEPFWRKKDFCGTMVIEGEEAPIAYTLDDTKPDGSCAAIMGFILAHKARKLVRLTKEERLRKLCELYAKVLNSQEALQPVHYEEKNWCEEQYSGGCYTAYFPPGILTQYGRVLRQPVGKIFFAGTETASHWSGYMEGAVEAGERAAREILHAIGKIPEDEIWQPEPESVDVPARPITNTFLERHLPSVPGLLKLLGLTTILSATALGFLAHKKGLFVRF
System: Amine oxidase [flavin-containing] B (Rattus norvegicus) | Read-out: IC50 | Origin: multiple publications
// return numeric value only (unit: µM, not printed)

Cn1c(N2N=C(c3ccccc3)CC2c2ccccc2)nc2ccccc2c1=O (centres undefined) ... 410
COc1cccc(/C=C/CC(=O)Nc2nc3ccccc3c(=O)s2)c1 ... 2.02
O=c1cc(CCO)c2ccc(OCc3cccc(Cl)c3)cc2o1 ... 0.00741
NC(=O)[C@@H](NCc1ccc(OCc2cccc(F)c2)cc1)c1ccccc1 ... 10
CCN(CC)C(=O)CCCCc1ccc2c(c1)OCO2 ... 1.75

Record O=C(COc1cccc(Cl)c1)Nc1nc2ccccc2c(=O)s1 . Reported IC50: 0.661

Record O=C1c2ccccc2-c2nnc(-c3ccccc3F)cc21 . Reported IC50: 18.1

Record NC(=O)[C@H](CO)NCc1ccc(OCc2cccc(Cl)c2)cc1 . Reported IC50: 0.043

Record Cc1c(C)c2ccc(OC(C)c3ccc(C(C)C)cc3)cc2oc1=O (centres undefined) . Reported IC50: 10

---

# Measured on: Amine oxidase [flavin-containing] B (Rattus norvegicus)
# Sequence (P19643 whole entry): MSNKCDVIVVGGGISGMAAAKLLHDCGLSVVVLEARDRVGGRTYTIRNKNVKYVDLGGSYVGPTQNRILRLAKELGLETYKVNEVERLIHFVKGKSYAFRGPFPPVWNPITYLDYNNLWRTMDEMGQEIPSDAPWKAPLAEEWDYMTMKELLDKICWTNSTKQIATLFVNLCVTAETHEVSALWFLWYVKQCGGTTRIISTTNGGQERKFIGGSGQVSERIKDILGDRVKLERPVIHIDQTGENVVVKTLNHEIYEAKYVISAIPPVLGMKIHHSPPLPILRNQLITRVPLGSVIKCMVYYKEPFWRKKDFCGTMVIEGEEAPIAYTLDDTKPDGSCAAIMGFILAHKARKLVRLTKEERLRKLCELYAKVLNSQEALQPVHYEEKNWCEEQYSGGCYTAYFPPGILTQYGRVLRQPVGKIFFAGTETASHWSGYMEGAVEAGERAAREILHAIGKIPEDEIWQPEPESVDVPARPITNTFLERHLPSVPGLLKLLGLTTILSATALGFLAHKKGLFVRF
System: Amine oxidase [flavin-containing] B (Rattus norvegicus) | Read-out: IC50 | Origin: multiple publications

CCOCc1cccc(COCC)c1CN ... > 1000 µM
NCc1ccccc1O ... > 1000 µM
O=C(NCCCN1CCOCC1)c1cccnc1 ... > 100 µM
Cc1ccc(C(=O)NCCCN2CCOCC2)cn1 ... > 100 µM

Record Cc1c(C)c2ccc(OCc3ccc(C(C)C)cc3)c(C)c2oc1=O . Reported IC50: > 10 µM
